Can you tell me Mean fluorescence intensity for the items I'm about to list?
- TARGET OR SYSTEM: T1, monkey LAG-3 (full length, on the cell surface) (monkey, UniProt P18627 24-525 (human entry))
- T1 construct: also called HEK293-cLAG-3; monkey LAG-3 protein on the cell surface
- T1 chain: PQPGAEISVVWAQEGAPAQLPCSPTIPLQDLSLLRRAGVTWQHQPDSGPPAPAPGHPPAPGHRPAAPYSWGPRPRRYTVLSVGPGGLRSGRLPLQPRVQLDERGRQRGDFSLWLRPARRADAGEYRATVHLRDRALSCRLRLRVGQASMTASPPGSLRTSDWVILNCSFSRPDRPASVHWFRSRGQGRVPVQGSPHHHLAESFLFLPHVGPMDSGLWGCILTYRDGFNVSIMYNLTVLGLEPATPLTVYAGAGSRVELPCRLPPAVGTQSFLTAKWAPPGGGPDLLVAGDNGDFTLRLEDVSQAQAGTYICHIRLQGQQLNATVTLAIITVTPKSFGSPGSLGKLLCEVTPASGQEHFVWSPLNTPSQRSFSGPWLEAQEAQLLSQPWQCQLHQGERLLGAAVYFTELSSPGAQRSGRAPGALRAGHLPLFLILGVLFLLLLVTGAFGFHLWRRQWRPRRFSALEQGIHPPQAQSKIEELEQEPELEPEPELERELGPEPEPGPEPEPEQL
- METHOD SUMMARY: FACS, HEK293-cLAG-3; 0.064 nM
Numbers only, in MFI.

- BINDER: "409D4E10 (mouse antibody purified from hybridoma) (antibody, V domains shown, also called mAb112-409D4E10) VH: QVQLQQSGAELVRPGASVTLSCKASGNTFTDYEMHWVKQTPVHGLEWIGATDPETDNTAYNQKFKGKAILTTDKSSSTAYMELRSLTSEDSAVYYCITSGWNDWGQGTSLTVSS VL: DIKMTQSPSSMYASLGERVTITCKASQDINSYLSWFQQKPGKSPKTLIYRANRLLDGVPSRFSGSGSGQDYSLTISSLEYEDMGIYYCLQYNEFPYTFGGGTKLEIK"
  Mean fluorescence intensity [MFI]: 4.7
- BINDER: "405B8H3 (mouse antibody purified from hybridoma) (antibody, V domains shown, also called mAb103-405B8H3; 405B81-13) VH: QVQLQQSGAELVRPGASVTLSCKASGYTFTDYEMHWVKQTPVHGLEWIGATDPETGNSAYNQKFKGKAIMTADKSSSTAYMELRSLTSEDSAVYYCISTGWNDWGQGTSLTVSS VL: DIKMTQSPSSMYASLGERVTITCKASQDINSYLSWFQQKPGKSPKTLIYRADRLLDGVPSRFSGSGSGQDYSLTISSLEYGDMGIYYCLQYDEFPYTFGGGTKLEIK"
  Mean fluorescence intensity [MFI]: 4.9

Turning to the following binder.
Query: Tell me the measured Mean fluorescence intensity of 409B11E12 (mouse antibody purified from hybridoma) (antibody, V domains shown, also called mAb104-409B11E12) VH: QVQLQQSGAELVRPGASVTLSCKASGYTFTDYEMHWVKQTTVHGLEWIGATDPETSYSAYNQKFKGKAILTADKSSSTAYMELRSLTSEDSAVYYCIATGWNDWGQGTSLTVSS VL: DLKMTQSPSSMYASLGERVTITCKASQDINSYLSWFQQKPGKSPKTLIYRANRLLDGVPSRFSGSGSGQDYSLTISSLEYEDMGIYYCLQYDEFPYTFGGGTKLEIK , please.
Response: 4.2
